Reported residual activity values for the following molecules.
# Study target: CSNK2A1 (human) (UniProt P68400)
# Sequence (P68400 whole entry, looked up): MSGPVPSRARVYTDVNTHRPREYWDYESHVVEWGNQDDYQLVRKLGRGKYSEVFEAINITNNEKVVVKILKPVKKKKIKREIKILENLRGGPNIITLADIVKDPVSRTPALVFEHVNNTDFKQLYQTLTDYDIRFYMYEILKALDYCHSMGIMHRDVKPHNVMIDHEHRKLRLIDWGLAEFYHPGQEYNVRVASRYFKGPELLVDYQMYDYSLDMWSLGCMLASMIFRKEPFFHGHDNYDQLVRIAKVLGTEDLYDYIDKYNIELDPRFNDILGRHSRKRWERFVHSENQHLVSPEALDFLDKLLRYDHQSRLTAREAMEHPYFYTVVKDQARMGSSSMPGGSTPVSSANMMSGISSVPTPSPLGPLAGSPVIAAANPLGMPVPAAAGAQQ
# Measurement notes: radiometric filter-binding kinase assay
# Setup conditions: compound 1.0 µM
Field format: number, assumed %, no unit text.

Some entries whose results are on file:
* C=CC(=O)N1CCC[C@@H](n2nc(-c3ccc(Oc4ccccc4)cc3)c3c(N)ncnc32)C1 | 115
* Cc1nc(-c2ccc(OCC(C)C)c(C#N)c2)sc1C(=O)O | 87
* C[C@H]1CCCC(=O)CCC/C=C/c2cc(O)cc(O)c2C(=O)O1 | 97

Incoming: Kindly indicate its recorded residual activity. Item: COc1ccc2c(c1)c1c3c(c4c5ccccc5n(C)c4c1n2CC(O)CN(C)C)C(=O)NC3=O (stereo not given)
Outgoing: 83

Incoming: Give me measured residual activity, please, for this molecule: C=C1C(=O)OC2C1CC/C(C)=C/CCC1(C)OC21 (stereo not given)
Outgoing: 117

* * *

# Study target: PLK1 (human) (UniProt P53350)
# Sequence (P53350 whole entry, looked up): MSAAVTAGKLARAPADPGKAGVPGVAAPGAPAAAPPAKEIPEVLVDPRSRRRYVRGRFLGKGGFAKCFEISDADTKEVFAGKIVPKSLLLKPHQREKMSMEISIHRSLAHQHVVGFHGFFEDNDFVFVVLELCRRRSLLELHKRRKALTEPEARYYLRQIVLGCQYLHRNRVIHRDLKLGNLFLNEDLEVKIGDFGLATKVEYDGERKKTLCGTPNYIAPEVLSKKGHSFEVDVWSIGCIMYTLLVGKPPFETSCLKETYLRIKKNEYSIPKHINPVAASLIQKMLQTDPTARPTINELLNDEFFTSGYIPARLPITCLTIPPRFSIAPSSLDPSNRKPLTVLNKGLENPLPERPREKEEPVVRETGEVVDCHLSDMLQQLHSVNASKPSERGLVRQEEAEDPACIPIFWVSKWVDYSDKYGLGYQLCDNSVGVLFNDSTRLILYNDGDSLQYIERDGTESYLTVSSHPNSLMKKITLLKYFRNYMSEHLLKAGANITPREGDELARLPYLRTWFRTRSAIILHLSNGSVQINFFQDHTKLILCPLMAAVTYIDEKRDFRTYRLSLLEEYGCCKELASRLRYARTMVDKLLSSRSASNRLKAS
# Measurement notes: radiometric filter-binding kinase assay
# Setup conditions: compound 0.1 µM
residual activity for assorted compounds
The answer is to be given in %; state only the numeric part.

Reference set, count: 4
• C/C(=C1/C(=O)Nc2ccc(NC(N)=O)cc21)c1ccc[nH]1 = 72
• C=CC(=O)N1CCC[C@@H](n2nc(-c3ccc(Oc4ccccc4)cc3)c3c(N)ncnc32)C1 = 88
• COc1cc(O)c2c(c1)[C@H]1OC1C[C@H](O)[C@H](O)C(=O)/C=C\C[C@H](C)OC2=O (stereo not given in full) = 107
• CNc1nc(-c2ccc3c(N)n[nH]c3c2)cc(N2C[C@@H](C(=O)NC3CCCCC3)CC[C@H]2C)n1 = 113

Read the next record carefully.
Incoming: Name the recorded residual activity of the item c1ccc2c(-c3cnn4cc(-c5ccc(N6CCNCC6)cc5)cnc34)ccnc2c1 in your answer.
Outgoing: 97

* * *

# Study target: UniProt:Q8TDC3
# Sequence (Q8TDC3 whole entry, looked up): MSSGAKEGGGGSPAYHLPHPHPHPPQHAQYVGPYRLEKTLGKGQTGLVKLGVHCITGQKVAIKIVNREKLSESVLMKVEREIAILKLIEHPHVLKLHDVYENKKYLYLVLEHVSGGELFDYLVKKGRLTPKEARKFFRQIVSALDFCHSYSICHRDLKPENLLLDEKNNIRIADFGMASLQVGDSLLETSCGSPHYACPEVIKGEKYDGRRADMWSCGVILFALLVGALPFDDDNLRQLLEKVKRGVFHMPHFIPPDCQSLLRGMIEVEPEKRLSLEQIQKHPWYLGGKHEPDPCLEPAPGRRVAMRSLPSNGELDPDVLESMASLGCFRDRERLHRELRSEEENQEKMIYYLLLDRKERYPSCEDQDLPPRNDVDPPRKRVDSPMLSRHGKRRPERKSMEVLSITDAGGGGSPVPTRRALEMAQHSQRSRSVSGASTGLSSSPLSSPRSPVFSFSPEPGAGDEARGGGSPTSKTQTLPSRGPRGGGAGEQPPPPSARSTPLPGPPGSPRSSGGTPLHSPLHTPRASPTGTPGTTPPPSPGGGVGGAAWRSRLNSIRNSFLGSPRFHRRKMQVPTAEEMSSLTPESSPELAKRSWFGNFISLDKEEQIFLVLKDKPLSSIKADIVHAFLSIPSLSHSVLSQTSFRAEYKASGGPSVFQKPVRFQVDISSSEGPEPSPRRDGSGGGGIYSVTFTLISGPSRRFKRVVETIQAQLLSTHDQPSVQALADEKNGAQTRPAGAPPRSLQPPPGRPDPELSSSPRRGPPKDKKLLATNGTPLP
# Measurement notes: radiometric filter-binding kinase assay
# Setup conditions: compound 0.1 µM
# residual activity per record follows
Value expressed in %; do not type the unit.

* NC1(c2ccc(-c3nc4ccn5c(=O)[nH]nc5c4cc3-c3ccccc3)cc2)CCC1 | 115

Incoming: Identify measured residual activity corresponding to COc1ccc(-n2ncc3cnc(Nc4cc(OC)c(OC)c(OCCCN5CCN(C)CC5)c4)nc32)cc1
Outgoing: 74

Incoming: Kindly indicate its recorded residual activity. Item: NC(=O)c1cc2c(-c3cccc(-c4ccccc4)c3)cnc(N)c2s1
Outgoing: 102

* * *

# Study target: AURKB (human)
# Measurement notes: radiometric filter-binding kinase assay
# Setup conditions: compound 0.1 µM
Assign yes to entries whose residual activity meets or exceeds 80%; assign no to the rest.

Here are 3 molecules together with their reported answers.
- Cn1c(=O)c2c(ncn2C)n(C)c1=O: yes
- CCc1cncnc1N1CCN(Cc2nc3cc(C(F)(F)F)ccc3[nH]2)CC1: yes
- Cc1ccc(-c2ccc3c(ccc4sc5c(c43)NC[C@@H](C)NC5=O)n2)cn1: yes

Incoming: Please indicate if the recorded residual activity for O=C(Nc1nc2cc(C(F)(F)F)cc(NC3CC3)n2n1)c1cccnc1 meets or exceeds 80%.
Outgoing: yes

Incoming: Kindly determine if residual activity recorded for O=C(N[C@@H](COc1ccc2[nH]c(=O)[nH]c2c1)c1ccccc1)c1cccn(Cc2ccc(F)c(F)c2)c1=O is above or exactly 80%.
Outgoing: yes

Incoming: Reported residual activity reaches at least 80% for COc1ccc2c(c1)c1c3c(c4c5ccccc5n(C)c4c1n2CC(O)CN(C)C)C(=O)NC3=O (configuration not stated) ?
Outgoing: no

Incoming: // inclusive: residual activity at least 80%? input: COc1cc(O)c2c(c1)/C=C/C[C@H](O)[C@H](O)C(=O)/C=C\C[C@H](C)OC2=O
Outgoing: yes

Incoming: Given CNC(=O)C1[C@H]2O[C@@](C)([C@@H]1N)n1c3ccccc3c3c4c(c5c6ccccc6n2c5c31)C(=O)NC4 (some centres not stated) , state whether its residual activity is at least 80%.
Outgoing: no

Incoming: Say whether CC1=C(CO)C(=O)O[C@@H]([C@@H](C)[C@H]2CC[C@H]3[C@@H]4C[C@H]5O[C@]56[C@@H](O)C=CC(=O)[C@]6(C)C4CC[C@]23C)C1 (some centres not stated) shows residual activity of 80% or more.
Outgoing: yes

Incoming: Check this molecule for residual activity at or above 80%: NC1(c2ccc(-c3nc4ccn5c(=O)[nH]nc5c4cc3-c3ccccc3)cc2)CCC1
Outgoing: yes

Incoming: # check: residual activity of COc1ccc(N(C(=O)Nc2c(C)cccc2C)c2cc(Nc3ccc(N4CCN(C)CC4)cc3)ncn2)c(OC)c1 is greater than or equal to 80%
Outgoing: yes

Data credit: the kinase profiling compilation of Christmann-Franck et al. (2016)
